Tested on: HS 578T breast
Assay: NCI tumour cell line growth inhibition, 48 h
PARAMETER: TGI

Examples from the recorded data:
O=C(Nc1n[nH]c2nnc(-c3cccnc3)cc12)C1CC1: > 9.38 µM
CCCCCCCCCCCCOC1C(CNC(=O)C2OC3OC(C)(C)OC3C2NC(=O)Nc2ccc(CC(=O)NC(Cc3ccccc3)C(=O)O)cc2)OC2OC(C)(C)OC21 (stereo not given): > 25 µM
O=c1ssc(Cl)c1Cl: > 10 µM

As a next step, examine the compound that follows.
Recorded TGI (compound CC1=CC(=O)CC(C)(C)C1/C=C/C(C)=C/C=C/C(C)=C/C=C/C=C(C)/C=C/C=C(C)/C=C/C1=C(C)CC(O)CC1(C)C (stereo not given) ): > 100 µM
